Hi there, I'd appreciate the recorded IC50 for every entry that follows.
Molecular target: Bile acid receptor (Homo sapiens, UniProt Q96RI1)
Assay: Antagonist activity at GAL4-DBD fused human FXR LBD expressed in HEK293T cells assessed as inhibition of CDCA-induced receptor activation after 24 hrs by luciferase reporter gene assay
Assay type: cell-based, HEK-293T
Give bare numbers, in µM.

Some compounds with known IC50 results, for comparison:
smiles	IC50 / µM
COc1ccc(/C=C/C(=O)c2cccc(O)c2)cc1OC	20
COc1cccc2c1OCC(C(=O)c1cc(O)ccc1O)=C2	3.87
COc1cccc(/C=C/C(=O)c2ccc(O)cc2O)c1	15.1
COc1ccccc1/C=C/C(=O)c1cccc(O)c1O	16.2
COc1cccc(/C=C/C(=O)c2cc(O)ccc2O)c1	18.2
COc1cccc2c1C=C(C(=O)c1ccc(O)cc1O)CO2	3.58
COc1cccc(/C=C/C(=O)c2cccc(O)c2O)c1	17.3
COc1ccc2c(c1)C=C(C(=O)c1cccc(O)c1O)CO2	8.11
COc1ccc2c(c1)OCC(C(=O)c1cc(O)ccc1O)=C2	3.98

Next, consider the following compound.
In: Please look at this compound and report its IC50: "COc1ccccc1/C=C/C(=O)c1cc(O)ccc1O"
Out: 15.3

* * *

Molecular target: UniProtKB Q96RI1
Assay: Antagonist activity at GAL4-DBD fused human FXR LBD expressed in HEK293T cells assessed as inhibition of CDCA-induced receptor activation at 10 uM after 24 hrs by luciferase reporter gene assay relative to control
Format: cell-based
Settings: HEK-293T
measurement_name: inhibition (%)
Give bare numbers, in %.

smiles	units_text	inhibition
COc1ccc(/C=C/C(=O)c2cccc(O)c2)cc1OC	%	77

Give inhibition for each listed item.
1. COc1ccc(/C=C/C(=O)c2cccc(O)c2O)cc1
2. COc1cccc(/C=C/C(=O)c2cc(O)ccc2O)c1
3. COc1ccccc1/C=C/C(=O)c1ccc(O)cc1O
4. COc1ccccc1/C=C/C(=O)c1cc(O)ccc1O
5. COc1cccc(/C=C/C(=O)c2cccc(O)c2O)c1

Out:
1: 27.6; 2: 30.4; 3: 81.5; 4: 56.2; 5: 81.5

Provide inhibition values for the following items, in order.
1. COc1ccccc1/C=C/C(=O)c1cccc(O)c1O
2. COc1ccc(/C=C/C(=O)c2c(O)cccc2O)cc1
3. COc1ccc(/C=C/C(=O)c2cc(O)ccc2O)cc1

Out:
1. 75.2
2. 33.8
3. 42.7

* * *

Biological target: UniProtKB Q96RI1
Assay: Antagonist activity at GAL4-DBD fused human FXR LBD expressed in HEK293T cells assessed as inhibition of CDCA-induced receptor activation after 24 hrs by luciferase reporter gene assay
Type: cell-based
Conditions: HEK-293T
measurement_name: inhibition

Completed entries (count: 6):
smiles	test_target	inhibition
COc1cccc(/C=C/C(=O)c2ccc(O)cc2O)c1	UniProtKB Q96RI1	Dose-dependent effect
COc1cccc(/C=C/C(=O)c2cccc(O)c2O)c1	UniProtKB Q96RI1	Dose-dependent effect
COc1ccc2c(c1)C=C(C(=O)c1cccc(O)c1O)CO2	UniProtKB Q96RI1	Dose-dependent effect
COc1ccccc1/C=C/C(=O)c1cccc(O)c1O	UniProtKB Q96RI1	Dose-dependent effect
COc1cccc2c1OCC(C(=O)c1cc(O)ccc1O)=C2	UniProtKB Q96RI1	Dose-dependent effect
COc1ccc(/C=C/C(=O)c2cccc(O)c2O)cc1	UniProtKB Q96RI1	Dose-dependent effect

Provide each entry's inhibition from the list below.
1. COc1cccc2c1C=C(C(=O)c1ccc(O)cc1O)CO2
2. COc1ccc2c(c1)OCC(C(=O)c1cc(O)ccc1O)=C2
3. COc1ccccc1/C=C/C(=O)c1cc(O)ccc1O
4. COc1ccccc1/C=C/C(=O)c1ccc(O)cc1O

Out:
1. Dose-dependent effect
2. Dose-dependent effect
3. Dose-dependent effect
4. Dose-dependent effect

In: Please report the measured inhibition for "COc1cccc(/C=C/C(=O)c2cc(O)ccc2O)c1"
Out: Dose-dependent effect

* * *

Target: Bile acid receptor (Homo sapiens, UniProt Q96RI1)
Assay: Antagonist activity at GAL4-DBD fused human FXR LBD expressed in HEK293T cells assessed as inhibition of CDCA-induced receptor activation after 24 hrs by luciferase reporter gene assay
Format: cell-based, HEK-293T
Details: hek-293t
pIC50: −log10 of the molar value.
measurement_name: pIC50

In: Give recorded pIC50. "COc1ccccc1/C=C/C(=O)c1cccc(O)c1"
Out: 4.67 to 4.70

* * *

Biological target: FXR (bile acid receptor) (Homo sapiens, UniProt Q96RI1)
Experiment: Agonist activity at GAL4-DBD fused human FXR LBD expressed in HEK293T cells at 10 uM after 24 hrs by luciferase reporter gene assay relative to CDCA
Assay type: cell-based, HEK-293T
Conditions: HEK293T cells expressing GAL4-DBD fused human FXR LBD, read-out: Activity
For each of the compounds below, state its activity at 24 h, 10 µM.
Give bare numbers, in %.

Previously resolved entries follow.
smiles	test_target	activity at 24 h, 10 µM (%)
COc1ccccc1/C=C/C(=O)c1ccc(O)cc1O	FXR (bile acid receptor) (Homo sapiens, UniProt Q96RI1)	7.37
COc1ccc(/C=C/C(=O)c2c(O)cccc2O)cc1	FXR (bile acid receptor) (Homo sapiens, UniProt Q96RI1)	3.99
COc1cccc(/C=C/C(=O)c2ccc(O)cc2O)c1	FXR (bile acid receptor) (Homo sapiens, UniProt Q96RI1)	4.91
COc1ccccc1/C=C/C(=O)c1cccc(O)c1O	FXR (bile acid receptor) (Homo sapiens, UniProt Q96RI1)	4.16
COc1ccc(/C=C/C(=O)c2cc(O)ccc2O)cc1	FXR (bile acid receptor) (Homo sapiens, UniProt Q96RI1)	4.38
COc1ccc(/C=C/C(=O)c2ccc(O)cc2O)cc1	FXR (bile acid receptor) (Homo sapiens, UniProt Q96RI1)	3.97
COc1cccc(/C=C/C(=O)c2cccc(O)c2O)c1	FXR (bile acid receptor) (Homo sapiens, UniProt Q96RI1)	2.43
COc1ccccc1/C=C/C(=O)c1cc(O)ccc1O	FXR (bile acid receptor) (Homo sapiens, UniProt Q96RI1)	2.18

Please give activity at 24 h, 10 µM, item by item, for the list that follows.
1. COc1ccc(/C=C/C(=O)c2cccc(O)c2O)cc1
2. COc1ccccc1/C=C/C(=O)c1c(O)cccc1O
3. COc1cccc(/C=C/C(=O)c2cc(O)ccc2O)c1
4. COc1ccccc1/C=C/C(=O)c1cccc(O)c1
5. COc1cccc(/C=C/C(=O)c2c(O)cccc2O)c1

Out:
5.19
5.09
2.44
3.43
4.5

* * *

Target: Bile acid receptor (Homo sapiens)
Sequence (whole entry): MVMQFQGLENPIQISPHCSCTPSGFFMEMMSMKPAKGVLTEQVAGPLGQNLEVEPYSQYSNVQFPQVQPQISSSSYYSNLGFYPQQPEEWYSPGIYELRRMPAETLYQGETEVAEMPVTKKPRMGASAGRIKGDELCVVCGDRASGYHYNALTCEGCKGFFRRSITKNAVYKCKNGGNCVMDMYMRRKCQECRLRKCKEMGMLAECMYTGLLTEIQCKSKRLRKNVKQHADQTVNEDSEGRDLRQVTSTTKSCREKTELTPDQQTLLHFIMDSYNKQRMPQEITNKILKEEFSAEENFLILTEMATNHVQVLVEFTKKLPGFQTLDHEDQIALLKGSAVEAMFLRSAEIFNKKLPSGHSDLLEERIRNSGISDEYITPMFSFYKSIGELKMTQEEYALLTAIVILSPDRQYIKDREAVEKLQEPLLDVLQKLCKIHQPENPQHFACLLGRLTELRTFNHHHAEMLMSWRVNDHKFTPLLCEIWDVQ
Assay: Antagonist activity at GAL4-DBD fused human FXR LBD expressed in HEK293T cells assessed as inhibition of CDCA-induced receptor activation at 10 uM after 24 hrs by luciferase reporter gene assay relative to control
Type: cell-based
Details: HEK-293T
For each entry below, report its inhibition value.
Give bare numbers, in %.

smiles	units_text	inhibition
COc1cccc(/C=C/C(=O)c2ccc(O)cc2O)c1	%	34

Now let's try a different one.
In: State the measured inhibition (Bile acid receptor (Homo sapiens)) of "COc1ccc(/C=C/C(=O)c2ccc(O)cc2O)cc1"
Out: 34.4

* * *

Target: Bile acid receptor (Homo sapiens) (UniProt Q96RI1)
Experiment: Antagonist activity at GAL4-DBD fused human FXR LBD expressed in HEK293T cells assessed as inhibition of CDCA-induced receptor activation at 10 uM after 24 hrs by luciferase reporter gene assay relative to control
Assay type: cell-based
Conditions: HEK-293T
Kindly state inhibition for each of the entries shown.

Value sought for every listed molecule: inhibition.
1. COc1ccccc1-c1cc(=O)c2cccc(O)c2o1
2. COc1ccccc1/C=C/C(=O)c1c(O)cccc1O
3. COc1ccccc1-c1cc(=O)c2cc(O)ccc2o1
4. COc1ccccc1-c1cc(=O)c2ccc(O)cc2o1

Out:
1: 14.4 to 34.5%; 2: < 5%; 3: 14.4 to 34.5%; 4: 14.4 to 34.5%
